Data provenance is patent US20220339143A1.

- procedure summary: Single dose PK in healthy subjects (Cohorts 1, 2, S1 and S2), plasma
- Assay type: in vivo, human
- experimental parameters: human, plasma, iv, 7 mg, 7 mg single IV infusion, healthy subjects; read-out: Ceoi Median
property name: concentration at 9 h (ng/mL)
Report the figure in ng/mL without appending any unit label.

Ask: Form field: reported concentration at 9 h of `COC(=O)N1CCC[C@H](NS(C)(=O)=O)[C@@H]1CO[C@H]1CC[C@@H](c2ccccc2)CC1`
Result: 13.9

---

- procedure summary: Single dose PK in healthy subjects (Cohorts 1, 2, S1 and S2), plasma
- Format: in vivo, human
- experimental parameters: human, plasma, iv, 7 mg, 7 mg single IV infusion, healthy subjects; read-out: AUC24 Median
property name: AUC

Ask: Would you kindly share the measured AUC for COC(=O)N1CCC[C@H](NS(C)(=O)=O)[C@@H]1CO[C@H]1CC[C@@H](c2ccccc2)CC1 [Compound A] ?
Result: 142 ng·h/mL

---

- procedure summary: CSF PK in healthy subjects (Cohort 4)
- Type: in vivo
- experimental parameters: human, cerebrospinal fluid, intravenous, 112 mg, Cohort 4; 6 hr; Mean
property name: concentration at 6 h (ng/mL)
Kindly answer with a numeric value in ng/mL, unit omitted.

Ask: May I ask what concentration at 6 h has been recorded for COC(=O)N1CCC[C@H](NS(C)(=O)=O)[C@@H]1CO[C@H]1CC[C@@H](c2ccccc2)CC1 [Compound A] ?
Result: 6.73

---

- procedure summary: Single dose PK in healthy subjects (Cohorts 1, 2, S1 and S2), plasma
- Type: in vivo, human
- experimental parameters: human, plasma, intravenous, 28 mg; 8 hr; read-out: Plasma concentration, Q1
property name: concentration at 8 hr
// return the numeric value with its unit appended

Ask: Please give the measured concentration at 8 hr for this molecule: `COC(=O)N1CCC[C@H](NS(C)(=O)=O)[C@@H]1CO[C@H]1CC[C@@H](c2ccccc2)CC1`
Result: 43.3 ng/mL

---

- procedure summary: Single dose PK in healthy subjects (Cohorts 1, 2, S1 and S2), plasma
- Type: in vivo, human
- experimental parameters: human, plasma, iv, 28 mg, 28 mg single IV infusion, healthy subjects; read-out: Vss Median
property name: Vd (L)
Express your answer in L, writing the number without its unit.

Ask: Report Vd for `COC(=O)N1CCC[C@H](NS(C)(=O)=O)[C@@H]1CO[C@H]1CC[C@@H](c2ccccc2)CC1` please.
Result: 105

---

- procedure summary: Single dose PK in healthy subjects (Cohorts 1, 2, S1 and S2), plasma
- Format: in vivo, human
- experimental parameters: human, plasma, intravenous, 56 mg; 8 hr; read-out: Plasma concentration, Q1
- Source text: […]
property name: concentration at 8 h (µg/mL)
Just the number in µg/mL, nothing appended.

Ask: Give its concentration at 8 h value. Item: `COC(=O)N1CCC[C@H](NS(C)(=O)=O)[C@@H]1CO[C@H]1CC[C@@H](c2ccccc2)CC1`
Result: 0.0872

---

- procedure summary: Single dose PK in healthy subjects (Cohorts 1, 2, S1 and S2), plasma
- Assay type: in vivo, human
- experimental parameters: human, plasma, iv, 112 mg, 112 mg single IV infusion, healthy subjects; read-out: Ceoi Mean
property name: concentration at 9 h (ng/mL)
Write down the numeric answer in ng/mL and omit the unit.

Ask: Param item = `COC(=O)N1CCC[C@H](NS(C)(=O)=O)[C@@H]1CO[C@H]1CC[C@@H](c2ccccc2)CC1` ; retrieve measured concentration at 9 h.
Result: 216
